target: BRD4 BD2 (Homo sapiens, UniProt O60885); test: AlphaScreen binding assay, BRD4 Bromodomain 2
Measurement Name: IC50

CC(=O)N1c2ccccc2N(S(=O)(=O)c2ccc(C#N)cc2)C[C@@H]1C [Example I-938]: > 0.5 µM
CC(=O)N1c2ccc(-c3ccc(S(C)(=O)=O)cc3)cc2N(c2ccccn2)C[C@@H]1C [Example I-47]: < 0.05 µM
CC(=O)N1c2ccc(-c3ccc(C#N)cn3)cc2N(C(=O)c2ccco2)C[C@@H]1C [Example I-392]: 0.05 to 0.5 µM

API: the following record is the query input.
// sample CC(=O)N1c2ccc(-c3c(C)n[nH]c3C)cc2N(C(=O)OC(C)C)CC1C (stereo not shown) [Example I-333] , its IC50 was > 0.5 µM
